Test system: PTPN2
PROTOCOL: HiBiT-Degradation B16F10.4 PTPN2
Type: cell-based
CONDITION NOTES: B16F10.4 cells, 24.0 hours
PROPERTY NAME: DC50

Reference set, count: 2
| COMPOUND | DC50 |
| --- | --- |
| O=C1CCC(N2C(=O)c3cccc(NCc4cn(CCC(=O)Nc5ccc6c(F)c(N7CC(=O)NS7(=O)=O)c(O)cc6c5)nn4)c3C2=O)C(=O)N1 (stereo not drawn) [Example 68] | ≥ 1000 nM |
| CC(C)(Nc1cccc2c1C(=O)N(C1CCC(=O)NC1=O)C2=O)c1cn(CCOCCC(=O)NCCOc2ccc3cc(O)c(N4CC(=O)NS4(=O)=O)c(F)c3c2)nn1 (stereo not drawn) [Example 37] | ≥ 1000 nM |

Sure, the documented DC50 for Cn1c(=O)n(C2CCC(=O)NC2=O)c2cccc(C3CCN(CC(=O)NCCOc4ccc5cc(O)c(N6CC(=O)NS6(=O)=O)c(F)c5c4)CC3)c21 (stereo not drawn) [Example 33] is ≥ 1000 nM

compound Cn1c(=O)n(C2CCC(=O)NC2=O)c2ccc(CCC(=O)NCCOc3ccc4cc(O)c(N5CC(=O)NS5(=O)=O)c(F)c4c3)cc21 (stereo not drawn) [Example 34] , DC50 observed: ≥ 1000 nM

Kindly note the recorded DC50 for Cn1c(=O)n(C2CCC(=O)NC2=O)c2ccc(C3CCN(CCCn4cc(-c5ccc6cc(O)c(N7CC(=O)NS7(=O)=O)c(F)c6c5)cn4)CC3)cc21 (stereo not drawn) [Example 91] , which is 50 to 200 nM

For reference, reported DC50 for Cn1c(=O)n(C2CCC(=O)NC2=O)c2ccc(Nc3ccc(CNC(=O)c4ccc5c(F)c(N6CC(=O)NS6(=O)=O)c(O)cc5c4)cc3)cc21 (stereo not drawn) [Example 148] stands at 200 to 1000 nM

Short answer for Cn1c(=O)n([C@@H]2CCC(=O)NC2=O)c2ccc(C3CCN(CC(=O)NCCOc4ccc5cc(O)c(N6CC(=O)NS6(=O)=O)c(F)c5c4)CC3)cc21 [Example 92] : DC50 was 200 to 1000 nM

Item: O=C1CCC(N2Cc3cc(NCc4cnn(CCC(=O)Nc5ccc6c(F)c(N7CC(=O)NS7(=O)=O)c(O)cc6c5)c4)ccc3C2=O)C(=O)N1 (stereo not drawn) [Example 16] | DC50: 200 to 1000 nM

Short answer for Cn1c(=O)n(C2CCC(=O)NC2=O)c2ccc(C3CCN(CC(=O)NCCOc4ccc5cc(O)c(N6CC(=O)NS6(=O)=O)c(F)c5c4)CC3(F)F)cc21 (stereo not drawn) [Example 140] : DC50 was ≥ 1000 nM

* * *

ASSAY TARGET: PTPN2 (Homo sapiens)
Construct: expressed in transfected cells; host or cells: 293T (293T.109 HiBiT-PTPN2 line; parental 293T WT from ATCC)
Sequence (P17706 whole entry, species assumed): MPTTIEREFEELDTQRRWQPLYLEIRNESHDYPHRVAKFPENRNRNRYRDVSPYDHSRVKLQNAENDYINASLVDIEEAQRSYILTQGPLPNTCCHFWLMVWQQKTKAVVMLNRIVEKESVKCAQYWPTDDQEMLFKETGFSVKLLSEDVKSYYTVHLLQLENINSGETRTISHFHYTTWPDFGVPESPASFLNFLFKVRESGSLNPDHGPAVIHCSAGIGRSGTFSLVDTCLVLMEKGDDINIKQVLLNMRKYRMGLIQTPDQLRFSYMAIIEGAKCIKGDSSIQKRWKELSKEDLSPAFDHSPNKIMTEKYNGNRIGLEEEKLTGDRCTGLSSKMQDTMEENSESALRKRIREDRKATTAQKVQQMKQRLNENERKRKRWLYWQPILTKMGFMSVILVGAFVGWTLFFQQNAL
PROTOCOL: HiBiT-Degradation 293T.109 PTPN2 (Nano-Glo HiBiT Lytic Assay)
Type: cell-based
CONDITION NOTES: 293T.109 (HiBiT-PTPN2) cells, 24.0 hours
PROPERTY NAME: DC50

Field: example entries. Status: answers known.
| MOLECULE | ASSAY TARGET | DC50 |
| --- | --- | --- |
| Cn1nc(C2CCC(=O)NC2=O)c2ccc(C3CCN(CC(=O)NCCOc4ccc5cc(O)c(N6CC(=O)NS6(=O)=O)c(F)c5c4)CC3)cc21 (stereo not drawn) | PTPN2 (Homo sapiens) | 10 to 50 nM |
| O=C1CCC(N2Cc3c(OCC(=O)N4CCC(C(=O)NCCOc5ccc6cc(O)c(N7CC(=O)NS7(=O)=O)c(F)c6c5)CC4)cccc3C2=O)C(=O)N1 (stereo not drawn) | PTPN2 (Homo sapiens) | 50 to 200 nM |

Kindly note the recorded DC50 for Cn1c(=O)n(C2CCC(=O)NC2=O)c2cccc(C3CCN(CCOCCC(=O)NCCOc4ccc5cc(O)c(N6CC(=O)NS6(=O)=O)c(F)c5c4)CC3)c21 (stereo not drawn) , which is ≥ 1000 nM

According to the records, this molecule Cn1nc([C@@H]2CCC(=O)NC2=O)c2ccc(N3CCC(CC(=O)Nc4ccc5c(F)c(N6CC(=O)NS6(=O)=O)c(O)cc5c4)CC3)cc21 displays DC50 of 10 to 50 nM

Value of measured DC50 for the entry Cn1c(=O)n(C2CCC(=O)NC2=O)c2ccc(C3CCN(CCn4cc(-c5ccc6c(F)c(N7CC(=O)NS7(=O)=O)c(O)cc6c5)cn4)CC3)cc21 (stereo not drawn) : 10 to 50 nM

Measured DC50, Cn1c(=O)n(C2CCC(=O)NC2=O)c2ccc(C3CCN(C(=O)NCCOc4ccc5cc(O)c(N6CC(=O)NS6(=O)=O)c(F)c5c4)CC3)cc21 (stereo not drawn) : 200 to 1000 nM

* * *

ASSAY TARGET: PTPN2 (Homo sapiens)
Construct: expressed in transfected cells; host or cells: 293T (293T.109 HiBiT-PTPN2 line; parental 293T WT from ATCC)
PROTOCOL: HiBiT-Degradation 293T.109 PTPN2 (Nano-Glo HiBiT Lytic Assay)
Assay type: cell-based
CONDITION NOTES: 293T.109 (HiBiT-PTPN2) cells, 24.0 hours
PROPERTY NAME: DC50

These solved cases illustrate the format of a correct answer.
| MOLECULE | PROPERTY NAME | RESULT VALUE |
| --- | --- | --- |
| Cn1c(=O)n(C2CCC(=O)NC2=O)c2ccc(-c3ccc(CNC(=O)c4ccc5c(F)c(N6CC(=O)NS6(=O)=O)c(O)cc5c4)cc3)cc21 (stereo not shown) [Example 106] | DC50 | 200 to 1000 nM |
| Cn1c(=O)n(C2CCC(=O)NC2=O)c2ccc(N3CCC(CC(=O)N4CC=C(c5ccc6cc(O)c(N7CC(=O)NS7(=O)=O)c(F)c6c5)C4)CC3)cc21 (stereo not shown) [Example 103] | DC50 | 200 to 1000 nM |

DC50 for PTPN2 (Homo sapiens) with input O=C1CCC(N2Cc3c(OCc4cnn(CCC(=O)Nc5ccc6c(F)c(N7CC(=O)NS7(=O)=O)c(O)cc6c5)c4)cccc3C2=O)C(=O)N1 (stereo not shown) [Example 21] equals 50 to 200 nM

Query CC(Nc1cccc2c1C(=O)N(C1CCC(=O)NC1=O)C2=O)c1cn(CCC(=O)Nc2ccc3c(F)c(N4CC(=O)NS4(=O)=O)c(O)cc3c2)nn1 (stereo not shown) [Example 66] on PTPN2 (Homo sapiens); DC50 returned: 200 to 1000 nM

Reading of DC50 for O=C1CCC(N2Cc3c(OCC(=O)N4CCC(C(=O)N5CC(Oc6ccc7cc(O)c(N8CC(=O)NS8(=O)=O)c(F)c7c6)C5)CC4)cccc3C2=O)C(=O)N1 (stereo not shown) [Example 32] with PTPN2 (Homo sapiens): 200 to 1000 nM

Tested on PTPN2 (Homo sapiens), the item CC(C)(Nc1cccc2c1C(=O)N(C1CCC(=O)NC1=O)C2=O)c1cn(CCC(=O)Nc2ccc3c(F)c(N4CC(=O)NS4(=O)=O)c(O)cc3c2)nn1 (stereo not shown) [Example 18] showed DC50 equal to 200 to 1000 nM

# lookup: Cn1c(=O)n(C2CCC(=O)NC2=O)c2ccc(C3CCN(CCC(=O)Nc4ccc5c(F)c(N6CC(=O)NS6(=O)=O)c(O)cc5c4)CC3)cc21 (stereo not shown) [Example 170] on PTPN2 (Homo sapiens), DC50 = 10 to 50 nM

* * *

DC50 values, listed per item
Test system: PTPN2
PROTOCOL: HiBiT-Degradation B16F10.4 PTPN2
Format: cell-based
CONDITION NOTES: B16F10.4 cells, 24.0 hours

Worked cases, answers included:
| COMPOUND | ASSAY TARGET | DC50 |
| --- | --- | --- |
| CC(C)(Nc1cccc2c1C(=O)N(C1CCC(=O)NC1=O)C2=O)c1cn(CCC(=O)Nc2ccc3c(F)c(N4CC(=O)NS4(=O)=O)c(O)cc3c2)nn1 (stereo not drawn) | PTPN2 | ≥ 1000 nM |
| Cn1c(=O)n(C2CCC(=O)NC2=O)c2ccc(-c3ccc(CC(=O)Nc4ccc5c(F)c(N6CC(=O)NS6(=O)=O)c(O)cc5c4)cc3)cc21 (stereo not drawn) | PTPN2 | 10 to 50 nM |
| Cn1c(=O)n(C2CCC(=O)NC2=O)c2ccc(C3CCN(CCC(=O)N4CCC(c5ccc6cc(O)c(N7CC(=O)NS7(=O)=O)c(F)c6c5)C4)CC3)cc21 (stereo not drawn) | PTPN2 | 50 to 200 nM |
| Cn1c(=O)n(C2CCC(=O)NC2=O)c2ccc(C3CCN(CC(=O)NCCOc4ccc5cc(O)c(N6CC(=O)NS6(=O)=O)c(Cl)c5c4)CC3)cc21 (stereo not drawn) | PTPN2 | 200 to 1000 nM |
| Cn1c(=O)n(C2CCC(=O)NC2=O)c2ccc(C3CCN(CCN4CC[C@@H](COc5ccc6cc(O)c(N7CC(=O)NS7(=O)=O)c(F)c6c5)C4)CC3)cc21 (stereo partly drawn) | PTPN2 | 50 to 200 nM |

Kindly consider the entry below.
Short answer for O=C1CCC(N2Cc3cc(OCc4cn(CCC(=O)Nc5ccc6c(F)c(N7CC(=O)NS7(=O)=O)c(O)cc6c5)nn4)ccc3C2=O)C(=O)N1 (stereo not drawn) : DC50 was 50 to 200 nM

The reported numbers originate from patent US20240383886A1.
